The measured values listed here are drawn from patent US20110294843A1.

Assay: Pharmacokinetics of M6G at single and multiple intravenous doses in healthy volunteers
Assay type: in vivo, human
Settings: both sexes, human, plasma, intravenous, 15 mg/70 kg, multiple dose, Dose 1-15 mg; Median; read-out: t1/2 (converted)
measurement.label: half-life (h)
Give bare numbers, in h.

### Prompt Sample CN1CC[C@]23c4c5ccc(O)c4O[C@H]2[C@@H](OC2OC(C(=O)O)C(O)C(O)C2O)C=CC3[C@H]1C5 (stereo partly shown) — what was its half-life?
### Response 1.65

###

Assay: Pharmacokinetics of M6G at single and multiple intravenous doses in healthy volunteers
Format: in vivo, human
Conditions: both sexes, human, plasma, iv, 15 mg/70 kg, single 5 min iv infusion 15 mg; Mean; read-out: MRT0-∞
measurement.label: MRT inf (h)
Give bare numbers, in h.

### Prompt Look up MRT inf for this compound: CN1CC[C@]23c4c5ccc(O)c4O[C@H]2[C@@H](OC2OC(C(=O)O)C(O)C(O)C2O)C=CC3[C@H]1C5 (stereo partly shown)
### Response 1.65

###

Test: Pharmacokinetics of M6G at single and multiple intravenous doses in healthy volunteers
Type: in vivo, human
Details: both sexes, human, plasma, iv, 15 mg/70 kg, single 5 min iv infusion 15 mg; Mean
measurement.label: clearance (mL/min)
Give bare numbers, in mL/min.

### Prompt Given the entry CN1CC[C@]23c4c5ccc(O)c4O[C@H]2[C@@H](OC2OC(C(=O)O)C(O)C(O)C2O)C=CC3[C@H]1C5 (stereo partly shown) , report its measured clearance.
### Response 133

###

Experiment: Pharmacokinetics of M6G at single and multiple intravenous doses in healthy volunteers
Assay type: in vivo, human
Conditions: both sexes, human, plasma, intravenous, 15 mg/70 kg, multiple dose, Dose 1-15 mg; Median; read-out: AUC0-6
measurement.label: AUC(0-t) (ng·h/mL)
Give bare numbers, in ng·h/mL.

### Prompt # get_value(readout='AUC(0-t)', item= CN1CC[C@]23c4c5ccc(O)c4O[C@H]2[C@@H](OC2OC(C(=O)O)C(O)C(O)C2O)C=CC3[C@H]1C5 (stereo partly shown) )
### Response 1950

###

Experiment: Pharmacokinetics of M6G at single and multiple intravenous doses in healthy volunteers
Format: in vivo, human
Conditions: both sexes, human, plasma, intravenous, 15 mg/70 kg, multiple dose, Dose 5-15 mg; Median; read-out: AUC24-30
measurement.label: AUC

### Prompt Recorded AUC for CN1CC[C@]23c4c5ccc(O)c4O[C@H]2[C@@H](OC2OC(C(=O)O)C(O)C(O)C2O)C=CC3[C@H]1C5 (stereo partly shown) , please?
### Response 2090 ng·h/mL

###

Test: Pharmacokinetics of M6G at single and multiple intravenous doses in healthy volunteers
Format: in vivo, human
Conditions: both sexes, human, plasma, intravenous, 15 mg/70 kg, multiple dose, Dose 1-15 mg; Geometric Mean; read-out: AUC0-6
measurement.label: AUC(0-t)
Please answer using a numeric value trailed by its unit.

### Prompt Find the recorded AUC(0-t) belonging to CN1CC[C@]23c4c5ccc(O)c4O[C@H]2[C@@H](OC2OC(C(=O)O)C(O)C(O)C2O)C=CC3[C@H]1C5 (stereo partly shown) and report it.
### Response 1910 ng·h/mL

###

Assay: Pharmacokinetics of M6G at single and multiple intravenous doses in healthy volunteers
Type: in vivo, human
Details: both sexes, human, plasma, intravenous, 30 mg/70 kg, single 5 min infusion 30 mg/70 kg; read-out: AUC0-∞, Geometric LS means
measurement.label: AUC(0-inf) (ng·h/mL)
One number for each entry, in ng·h/mL.

### Prompt Look up AUC(0-inf) for this compound: CN1CC[C@]23c4c5ccc(O)c4O[C@H]2[C@@H](OC2OC(C(=O)O)C(O)C(O)C2O)C=CC3[C@H]1C5 (stereo partly shown) [M6G]
### Response 3970
